# method_summary: Selectivity index, ratio of IC50 for human MCF-10A to IC50 for human MDA-MB-231 cells
# Format: toxicity
# assay_setup: MCF-10A cells and MDA-MB-231 cells, read-out: Ratio IC50
test_readout: selectivity ratio

Data request: Could you tell me which selectivity ratio is on file for CCN(CC)c1ccc2cc(C(=O)OCCCCCOc3cc4ccc(=O)oc4cc3OCCCCCCOc3no[n+]([O-])c3S(=O)(=O)c3ccccc3)c(=O)oc2c1 ?
Data returned: > 6250

###

# method_summary: Cytotoxicity against human MCF-10A cells assessed as inhibition of cell growth incubated for 48 hrs by MTT assay
# Format: toxicity, cell-based
test_readout: IC50 at 48 h (µM)
Write the value in µM as a bare number.

Data request: What value of measured IC50 at 48 h is listed for O=S(=O)(c1ccccc1)c1c(OCCCCOc2cccc3c2Oc2cccc(c2)CCc2ccc(O)c(c2)Oc2ccc(cc2)CC3)no[n+]1[O-] ?
Data returned: 8.32

Consider the additional compound presented here.
Data request: What IC50 at 48 h value was documented for this compound, O=S(=O)(c1ccccc1)c1c(OCCCOc2cccc3c2Oc2cccc(c2)CCc2ccc(O)c(c2)Oc2ccc(cc2)CC3)no[n+]1[O-] ?
Data returned: 14.3
